The reported numbers originate from paper PMC13397619.

In this section we review reported enrichment values for a set of variants.
B1: NLV2 TCR alpha chain (CDR3α only) (parent)
chain: AGPMKTSYDKVI

variants of: B1; experiment: T-Switch: Jurkat TCRβ−/− cells expressing a CDR3 saturation-mutagenesis library, stained with two peptide-HLA-A*02:01 tetramers (original and novel peptide) plus anti-CD3, FACS-sorted into four gates, gDNA sequenced; details: with both tetramers (double-negative gate, binds neither): HLA-A*02:01 with … and with …, tetramers 1 µg/mL, 30 min on ice, SP, DP and SW gates expanded about 10 days between rounds ('two to three rounds of selection' in the Methods), gate DN: OPPOSITE: higher = more of the variant in the gate that binds neither peptide = LESS binding (or no expression; inferred). Fold enrichment of the CDR3 variant in one FACS gate of a two-tetram, unresolved parent, parent is a CDR3 fragment, scale: fold enrichment, numbering: sequential-on-construct, sequence starts at 1
propertyLabel: enrichment

variantSpec	reportedMeasurement
[…] (CDR3 as printed); I12V derived by comparing it with the table's wild-type CDR3 AGPMKTSYDKVI	0.739
[…] (CDR3 as printed); M4N derived by comparing it with the table's wild-type CDR3 AGPMKTSYDKVI	0.728
[…] (CDR3 as printed); P3V derived by comparing it with the table's wild-type CDR3 AGPMKTSYDKVI	1.02
[…] (CDR3 as printed); T6W derived by comparing it with the table's wild-type CDR3 AGPMKTSYDKVI	1.07
[…] (CDR3 as printed); D9E derived by comparing it with the table's wild-type CDR3 AGPMKTSYDKVI	1.03
[…] (CDR3 as printed); S7T derived by comparing it with the table's wild-type CDR3 AGPMKTSYDKVI	0.968
[…] (CDR3 as printed); G2M derived by comparing it with the table's wild-type CDR3 AGPMKTSYDKVI	1.1
[…] (CDR3 as printed); G2R derived by comparing it with the table's wild-type CDR3 AGPMKTSYDKVI	0.977
[…] (CDR3 as printed); K10H derived by comparing it with the table's wild-type CDR3 AGPMKTSYDKVI	0.835
[…] (CDR3 as printed); M4G derived by comparing it with the table's wild-type CDR3 AGPMKTSYDKVI	0.783
[…] (CDR3 as printed); Y8F derived by comparing it with the table's wild-type CDR3 AGPMKTSYDKVI	1.1
[…] (CDR3 as printed); A1R derived by comparing it with the table's wild-type CDR3 AGPMKTSYDKVI	0.924
[…] (CDR3 as printed); A1E derived by comparing it with the table's wild-type CDR3 AGPMKTSYDKVI	0.767
